- Test system: Potassium-transporting ATPase (Oryctolagus cuniculus)
- protocol: Percent inhibition of [14C]aminopyrine (AP) accumulation in dibutyryl cAMP stimulated rbbit parietal cells at 10 uM
readout.type: inhibition (%)

>  <compound>
COc1cc(OC)c(OC)cc1C[S+]([O-])c1ncccc1C(=O)Nc1ccncc1 (centres undefined)

>  <reported.value>
32.5

$$$$
>  <compound>
O=C(Nc1nccs1)c1cccnc1[S+]([O-])C(c1ccccc1)c1ccccc1 (centres undefined)

>  <reported.value>
14.7

$$$$
>  <compound>
O=C(Nc1ccc2ncccc2c1)c1cccnc1[S+]([O-])C(c1ccccc1)c1ccccc1 (centres undefined)

>  <reported.value>
61.8

$$$$
>  <compound>
O=C(Nc1c2ccccc2nc2ccccc12)c1cccnc1[S+]([O-])C(c1ccccc1)c1ccccc1 (centres undefined)

>  <reported.value>
47.6

$$$$

[1] CN(C)c1ccc(NC(=O)c2cccnc2[S+]([O-])C(c2ccccc2)c2ccccc2)cc1 (centres undefined)
[2] COc1ccc(C[S+]([O-])c2ncccc2C(=O)Nc2ccncc2)c(OC)c1OC (centres undefined)
[Q] Between 1 and 2 , whose recorded inhibition is greater? Lab log: write the label of the selected item as the result.
[A] 1
(1: 58.3%, 2: 19.6%)

###

- protocol: t1/2 is the time taken for the conversion of nicotinamides to isothiazolopyridine at pH=7.0
- Type: ADME
readout.type: half-life (h)

>  <compound>
Cc1c(OCC(F)(F)F)ccnc1C[S+]([O-])c1nc2ccccc2[nH]1 (centres undefined)

>  <half-life / h>
6.08

$$$$

[1] COc1ccc2[nH]c([S+]([O-])Cc3ncc(C)c(OC)c3C)nc2c1 (centres undefined)
[2] COc1ccnc(C[S+]([O-])c2nc3ccc(OC(F)F)cc3[nH]2)c1OC (centres undefined)
[Q] Identify the entry with the larger half-life. Options: 1 and 2 Respond using the label that marks the chosen record.
[A] 2

###

- Tested on: Rattus norvegicus
- protocol: Percent inhibition of histamine induced gastric acid secretion in pylorus-ligated rats at 100 mg/Kg intraduodenal dose
- condition.set: Stomach
Recorded inhibition in vivo at 100 mg/kg for the following compounds
Response body: numeric value in %, unit text excluded.

[Q] Please report the measured inhibition in vivo at 100 mg/kg for COc1cc(OC)c(C[S+]([O-])c2ncccc2C(=O)Nc2ccncc2)cc1Br (centres undefined)
[A] 34.8

[Q] Read the entry Cc1ccc(C(c2ccc(C)cc2)[S+]([O-])c2ncccc2C(=O)Nc2ccncc2)cc1 (centres undefined) and write its reported inhibition in vivo at 100 mg/kg.
[A] 48.1

###

- System: Potassium-transporting ATPase (Oryctolagus cuniculus)
- protocol: Percent inhibition of [14C]aminopyrine (AP) accumulation in dibutyryl cAMP stimulated rbbit parietal cells at 10 uM
readout.type: inhibition (%)

Record excerpt, results attached:
>  <molecule>
CC(C)CNC(=O)c1cccnc1[S+]([O-])C(c1ccccc1)c1ccccc1 (stereo not drawn)

>  <test.target>
Potassium-transporting ATPase (Oryctolagus cuniculus)

>  <inhibition [%]>
1.3

$$$$
>  <molecule>
O=C(Nc1ccccc1)c1cccnc1[S+]([O-])C(c1ccccc1)c1ccccc1 (stereo not drawn)

>  <test.target>
Potassium-transporting ATPase (Oryctolagus cuniculus)

>  <inhibition [%]>
5

$$$$
>  <molecule>
COc1cc(C[S+]([O-])c2ncccc2C(=O)Nc2ccncc2)cc(OC)c1OC (stereo not drawn)

>  <test.target>
Potassium-transporting ATPase (Oryctolagus cuniculus)

>  <inhibition [%]>
11.3

$$$$
>  <molecule>
Cc1cc(C)c2ccc(NC(=O)c3cccnc3[S+]([O-])C(c3ccccc3)c3ccccc3)nc2n1 (stereo not drawn)

>  <test.target>
Potassium-transporting ATPase (Oryctolagus cuniculus)

>  <inhibition [%]>
68.6

$$$$
>  <molecule>
CN(C)CCc1ccc(NC(=O)c2cccnc2[S+]([O-])C(c2ccccc2)c2ccccc2)cc1 (stereo not drawn)

>  <test.target>
Potassium-transporting ATPase (Oryctolagus cuniculus)

>  <inhibition [%]>
93.5

$$$$

[A] Cc1ccc2cccc(NC(=O)c3cccnc3[S+]([O-])C(c3ccccc3)c3ccccc3)c2n1 (stereo not drawn)
[B] Cc1ccc(C(c2ccc(C)cc2)[S+]([O-])c2ncccc2C(=O)Nc2cccc3ncccc23)cc1 (stereo not drawn)
[Q] I would appreciate it if you could say which entry, A or B , has the lower inhibition value. Give the chosen item's label as your response.
[A] A
